B1: ZBTB22 (parent)
chain: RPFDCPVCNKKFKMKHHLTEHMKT

# Variants of: B1
# TEST: protein stability index of a GFP-peptide fusion (GPS, HEK-293T) (PSI 1-6); higher = more stable;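 note: lentivirally expressed fusions sorted by FACS into six bins by GFP to DsRed ratio, PSI derived from sequencing read proportions per bin multiplied by bin number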
# COND: c terminus: a fixed tail appended
METRIC: protein stability index
In your answer, state the number alone without any accompanying words.

| MUTATION ANNOTATION | protein stability index |
| --- | --- |
| H21F | 2.06 |
| T24P | 2.45 |
| P6K | 2.9 |
| K23T | 2.38 |

// protein stability index lookup, variant = M14Y , result: 3.1

// protein stability index lookup, variant = D4W , result: 2.6
